Kindly supply the reported agonist activity (IL-8 release assay) values for the records listed here.
Tested System: T1, TweakR on cells (TweakR-expressing cells, TweakR transfectant cell line, A375 melanoma cells, tumor tissue) (human, UniProt Q9NP84 28-129)
T1 sequence: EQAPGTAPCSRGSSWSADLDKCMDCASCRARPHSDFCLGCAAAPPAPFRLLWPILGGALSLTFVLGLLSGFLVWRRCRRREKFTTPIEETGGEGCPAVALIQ
Assay Info: cell-based or functional assay

Requested read-out: agonist activity (IL-8 release assay). Entry: humanized anti-TweakR antibody PDL192 (antibody, human IgG1, V domains shown) VH: EVQLVESGGGLVQPGGSLRLSCAASGFTFSSYWMSWVRQAPGKGLEWVAEIRLKSDNYATHYAESVKGRFTISRDDSKNSLYLQMNSLRAEDTAVYYCTGYYADAMDYWGQGTLVTVSS VL: DIQMTQSPSSLSASVGDRVTITCRASQSVSTSSYSYMHWYQQKPGKAPKLLIKYASNLESGVPSRFSGSGSGTDFTLTISSLQPEDFATYYCQHSWEIPYTFGGGTKVEIK ~25%

Please give the measured agonist activity (IL-8 release assay) for this binder: murine anti-TweakR antibody ITEM-1 (antibody, V domains shown) VH: EVKLEESGGGLVQPGGSMKLSCVASGFSFSNYWMNWVRQSPEKGLEWVAEIRLKSNNYATHYAESVKGRFTISRHDSKSSVYLQMNNLRAEDTGIYYCTRAYADYFDYWGQGTTLTVSS VL: DIVLTQSPASLVVSLGQRATISCRASQSVSTSTYSYMHWYQQKPGQPPKILIKYASNLESGVPARFSGSGSGTDFTLNIHPVEEEDTATYYCQHSWEIPYTFGGGTKLEIKR ~25%

What value of agonist activity (IL-8 release assay) has been reported for the following binder? murine anti-TweakR antibody 19.2.1 (antibody, mouse IgG2a, V domains shown) VH: EVKLEESGGGLVQPGGSMKLSCVASGFTFSSYWMSWVRQSPEKGLEWVAEIRLKSDNYATHYAESVKGKFTISRDDSKSRLYLQMNSLRAEDTGIYYCTGYYADAMDYWGQGTSVTVSS VL: DIVLTQSPASLAVSLGQRATISCRASQSVSTSSYSYMHWYQQKPGQPPKLLIKYASNLESGVPARFSGSGSGTDFTLNIHPVEEEDTATYYCQHSWEIPYTFGGGTKLEIK ~39%
